system: EPHB1 kinase domain; experiment: pTyr-Var library bacterial peptide display kinase screen (enrichment scores); type: biochemical, human; conditions: sheet EPHB1; effect of the variant peptide relative to its reference peptide in the pTyr-Var library screen (enrichment scores);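 further: log2 fold change in enrichment of variant over reference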
Kindly supply the reported Screen values for the records listed here.
When you answer, write just the number.

Qu. Sample SPFMLYQFLKQ [RPAP3_Y567_D564Y_YF] — what was its Screen?
Ans. 2.24

Qu. And then PMFHSYVSLPF [PLXNA2_Y293_K289M] , what is it?
Ans. 0.7871

Qu. And then LLIMEYAKFGS [RET_Y806_V804M_YF] , what is it?
Ans. -1.009

Qu. And then AQQPIYIRVEG [NLRP7_Y318_V319I] , what is it?
Ans. -2.185

Qu. And then GQRDLYSGLNE [CD3E_Y199_Q204E] , what is it?
Ans. -0.9821

Qu. And then RGKLFYQEVPA [METTL11B_Y76_A72G] , what is it?
Ans. -1.027

Qu. And then DGQVNYEGFVQ [CALM1_Y139_E141G] , what is it?
Ans. -0.1972

Qu. And then CGPLLYGLVHQ [PRKCG_Y122_S119P] , what is it?
Ans. 0.3123

Qu. And then ITNLLYHLVGW [GBA_Y412_V414L] , what is it?
Ans. -1.095

Qu. And then QKTGDYFDLFG [PTPN11_Y62_N58K_YF] , what is it?
Ans. -1.083

Qu. And then LNEAVYTKMMT [G6PD_Y401_P396L] , what is it?
Ans. 1.441

Qu. And then PLQHVYKIGGI [EEF1A2_Y254_D252H] , what is it?
Ans. -0.7167

Qu. And then LVIIKYLPEWT [PSEN1_Y240_F237I] , what is it?
Ans. 1.338
